- Tested on: U251 CNS
- assay-name: NCI-60 one-dose screen, 48 h (100 = growth as untreated, 0 = no growth, -100 = all killed)
- condition-notes: 10 µM unless noted
Compounds without any hit were thinned out: in the full panel of roughly 83,000, 20% have a hit.
Measured growth, listed per entry.
// return numeric value only (unit: %, not printed)

Quick check: growth of O=S(=O)(NCCCNc1nccc(-c2[nH]c(-c3ccccc3)nc2-c2ccc(Cl)c(O)c2)n1)c1ccc(Br)cc1 ?
30.7

Quick check: growth of Cc1cc(C)cc(C(=O)Nc2cccc(C#Cc3cccc4[nH]nc(N)c34)c2)c1 ?
72.2

Quick check: growth of CCO/C=N/C1=C(C#N)C(c2ccc(OC)cc2)c2sc3c(C)cccc3c2O1 (stereo not drawn) ?
22.1

----------
- System: SF-268 CNS
- assay-name: NCI-60 one-dose screen, 48 h
- condition-notes: 10 µM unless noted
Compounds without any hit were thinned out: in the full panel of roughly 83,000, 20% have a hit. Activity calls are given as the source filed them. Rule for the calls: active = growth percent below 10; inactive = the rest.
Valid outcomes are listed here; reply with one: active, inactive

compound	class-name
COc1cc2c(cc1OC)C(Sc1ccc(F)cc1)c1c(nc(N)c(C#N)c1N)O2 (stereo not given)	active
CC(C)(O)c1cncc(-c2ccc3ncnc(NCc4ccccc4)c3c2)c1	inactive
O=S(=O)(NCCCNc1nccc(-n2cnc3ccccc32)n1)c1ccc(C(F)(F)F)cc1	inactive
COc1ccc(C(=O)c2c(N)c(C#N)cn2-c2ccccc2OC)cc1	inactive

How was COC(=O)c1[nH]nc2c1C1(C(=O)c3cccc4cccc1c34)C(C#N)=C(N)O2 (stereo not given) classified in this test?
inactive

How was CN1CCN(Cc2ccc(NC(=O)c3cncc(C#Cc4cnc5ccc(NCCCO)nn45)c3)cc2C(F)(F)F)CC1 classified in this test?
active

How was C[C@@H](Nc1ncnc2ccc(-c3cnc(Cl)c(NS(C)(=O)=O)c3)cc12)c1ccccc1 classified in this test?
inactive

How was COc1cc(Cn2cc3c(c2)-c2onc(CN4CCCC4)c2CC3)cc(OC)c1OC classified in this test?
inactive

----------
Measured growth, listed per entry.
- Test system: SF-539 CNS
- assay-name: NCI-60 one-dose screen, 48 h (100 = growth as untreated, 0 = no growth, -100 = all killed)
- condition-notes: 10 µM unless noted
- Procedure: Cells are grown in 96 well plates and exposed to the test compound for 48 hours. Compounds are tested at a single concentration, which is 10^-5 M for most compounds. The reported endpoint is percent growth (GI% or GIPRCNT), where numbers from 0 - 100% represent growth inhibition, and numbers from -100% - 0 represent cell death. For example, a value of 40 represents 60% growth inhibition. A value of 0 means no net growth occurred over the course of the experiment. […]
The panel holds about 83,000 compounds, 20% with a hit somewhere; the sample as a whole holds those more often.
// return numeric value only (unit: %, not printed)

For orientation, consider the following solved cases.
compound	growth / %
CNC(=O)c1cc(-c2ccc(NC(=S)Nc3cc(C(F)(F)F)cc(C(F)(F)F)c3)cc2)nc2cccnc12	92.1
O=C1CC(=O)N2CSCN(C(c3ccccc3)c3nc4ncncc4[nH]3)C2=N1 (stereo not drawn)	99.1

Quick check: growth of CN1CCN(Cc2ccc(NC(=O)c3cncc(C#Cc4cnc5ccc(N6CCN(C)CC6)nn45)c3)cc2C(F)(F)F)CC1 ?
-98

Quick check: growth of CCCCCc1ccc(S(=O)(=O)Nc2cc(-c3csc(NC(=O)CN4CCN(C)CC4)n3)ccc2OC)cc1 ?
-80.8

Quick check: growth of C=CCn1c(SCC(=O)Nc2ccc(C(=O)/C=C/c3ccc(Br)cc3)cc2)nnc1-c1c[nH]c2ccccc12 ?
88.2

Quick check: growth of COc1cc(/C=N/NC(=O)c2cn(C3CC3)c3c(OC)c(N4CC5CCCNC5C4)c(F)cc3c2=O)ccc1O (stereo not drawn) ?
-9.11

Quick check: growth of Cc1cc(-c2ccc(Cl)cc2)n(Cc2nnc(SCC(=O)Nc3ccc(S(N)(=O)=O)cc3)n2-c2ccc([N+](=O)[O-])cc2)n1 ?
97

Quick check: growth of CC(=O)N1N=C(c2cccc(-n3cccc3)c2)CC1c1cccc(F)c1 (stereo not drawn) ?
101

Quick check: growth of CS(=O)(=O)Nc1cc(-c2ccc3ncc(C#N)c(NCc4ccccc4)c3c2)cnc1Cl ?
-42.6

----------
- Test system: CCRF-CEM leukemia
- assay-name: NCI-60 one-dose screen, 48 h
- condition-notes: 10 µM unless noted
Compounds without any hit were thinned out: in the full panel of roughly 83,000, 20% have a hit. Active and inactive are the calls of the source. The calls were made as follows: active = growth percent below 10; inactive = the rest.
Valid outcomes are listed here; reply with one: active, inactive

Solved entries:
compound	experimental-target	class-name
Cc1cc(C)n(C(=O)c2sc(=S)n(-c3ccccc3)c2N=Nc2c(N)n[nH]c2N)n1	CCRF-CEM leukemia	inactive
O=C1C(c2ccccc2)=C(N2CCc3ccccc32)OC1(Cl)Cl	CCRF-CEM leukemia	active
O=C(NNc1nc2cc(F)cc(F)c2n2cccc12)c1cnccn1	CCRF-CEM leukemia	inactive
COc1c(N2CC3CCCNC3C2)c(F)cc2c(=O)c(C(=O)N/N=C/c3ccccc3)cn(C3CC3)c12 (centres undefined)	CCRF-CEM leukemia	inactive
Clc1nc2ccccc2nc1-c1nnc(C2CCCCC2)o1	CCRF-CEM leukemia	inactive
CC(=O)c1nnn(-c2c(C(=O)n3nc(C)cc3C)sc(=S)n2-c2ccccc2)c1C	CCRF-CEM leukemia	inactive
Cc1ccc(NC(=O)c2ccc(CN3CCN(C)CC3)cc2)cc1Oc1ccc(-c2[nH]nc3ncnc(N)c23)cc1	CCRF-CEM leukemia	inactive
NS(=O)(=O)c1ccc(Nc2nc(SCC(=O)c3ccc(Cl)cc3)nc3c2CCCC3)cc1	CCRF-CEM leukemia	inactive
COc1cc(/C=C2\C(=O)Nc3ccccc32)ccc1OCc1ccc(F)cc1	CCRF-CEM leukemia	inactive
CC(=O)O[C@@H]1C(=O)N(c2cnccn2)[C@H]1c1ccccc1[N+](=O)[O-]	CCRF-CEM leukemia	inactive

How was CNC(=O)c1cc(Oc2ccc3nc(NC(=O)c4ccc(N5CCOCC5)c(C(F)(F)F)c4)sc3c2)ccn1 classified in this test?
inactive

----------
- Test system: MDA-MB-435 melanoma
- assay-name: NCI-60 one-dose screen, 48 h (100 = growth as untreated, 0 = no growth, -100 = all killed)
- condition-notes: 10 µM unless noted
- Experimental: Growth inhibition of the MDA-MB-435 human Melanoma tumor cell line is measured as a screen for anti-cancer activity. Cells are grown in 96 well plates and exposed to the test compound for 48 hours. Compounds are tested at a single concentration, which is 10^-5 M for most compounds. The reported endpoint is percent growth (GI% or GIPRCNT), where numbers from 0 - 100% represent growth inhibition, and numbers from -100% - 0 represent cell death. […]
About 83,000 compounds went through this panel and 20% of them were active in at least one assay; those are over-represented in the sample as a whole. Active and inactive are the calls of the source. How the source made its calls: active means growth percent below 10; inactive means the rest.
endpoint: growth

Quick check: growth of C#C[C@]1(O)CC[C@H]2[C@@H]3CC=C4c5sc(-c6ccc(C)cc6)nc5CC[C@]4(C)[C@H]3CC[C@@]21C ?
-46.4% (active)

----------
- System: LOX IMVI melanoma
- assay-name: NCI-60 one-dose screen, 48 h (100 = growth as untreated, 0 = no growth, -100 = all killed)
- condition-notes: 10 µM unless noted
The panel holds about 83,000 compounds, 20% with a hit somewhere; the sample as a whole holds those more often.
endpoint: growth (%)
// return numeric value only (unit: %, not printed)

compound	experimental-target	measurement
CC(=O)c1nnn(-c2c(C(=O)n3nc(C)cc3C)sc(=S)n2-c2ccccc2)c1C	LOX IMVI melanoma	98.8
O=C1[C@H]2Cc3c([nH]c4ccccc34)[C@@H](c3c(Cl)cccc3Cl)N2C(=O)CN1C1CCN(CC2CCCCC2)CC1	LOX IMVI melanoma	-59.9
CCCn1cnc2c(c1=N)C(c1ccc(OC)cc1)c1sc3c(C)cccc3c1O2 (centres undefined)	LOX IMVI melanoma	25.1

Proceed to the following item.
Quick check: growth of CCOC(=O)c1c(NC(=O)c2ccccc2C(F)(F)F)sc2c1CCC(=O)C2 ?
3.5

----------
- System: T-47D breast
- assay-name: NCI-60 one-dose screen, 48 h (100 = growth as untreated, 0 = no growth, -100 = all killed)
- condition-notes: 10 µM unless noted
Compounds without any hit were thinned out: in the full panel of roughly 83,000, 20% have a hit.
Measured growth, listed per entry.
// return numeric value only (unit: %, not printed)

compound	unit-tag	measurement
CNC(=O)c1cc(Oc2ccc3nc(NC(=O)c4ccc(N5CCOCC5)c(C(F)(F)F)c4)sc3c2)ccn1	%	86.1

Missing value: growth, T-47D breast, entry CCCCCCCn1cc2c(NCCc3ccccc3)ncnc2n1 . Fill in?
94.5

Missing value: growth, T-47D breast, entry CN1CCN(c2nc(-c3csc(-c4ccccc4)n3)cc3ccccc23)CC1 . Fill in?
-23.3

Missing value: growth, T-47D breast, entry CCO/C=N/C1=C(C#N)C(c2ccc(Cl)cc2)c2sc3c(CC)cccc3c2O1 (configuration not stated) . Fill in?
26.9
